System: Streptococcus pyogenes SSI-9
EXPERIMENT_SUMMARY: Antibacterial activity assay of bead-derived peptides (three concentrations)
Format: cell-based
Parameters: key: +++: inhibition by the 640-fold diluted peptide solution; ++: inhibition by the 160-fold diluted solution; +: inhibition by the 40-fold diluted solution; -: no inhibition
ASSAY_CONDITIONS: S. pyogenes, bead-derived peptide solution, three concentrations
Where a SMILES comes first, the peptide text is derived from it. [ ]: non-standard residue; d: D form. The star is where a group is joined. NHCH2CH2OH = OCCN*; For = O=C*
EXPERIMENTAL_ENDPOINT: antibacterial activity

CC(C)C[C@@H](NC(=O)[C@H](C)NC(=O)CNC(=O)[C@@H](NC=O)C(C)C)C(=O)N[C@@H](C)C(=O)N[C@@H](C(=O)N[C@H](C(=O)N[C@@H](C(=O)N[C@@H](Cc1c[nH]c2ccccc12)C(=O)N[C@@H](C(=O)N[C@@H](Cc1c[nH]c2ccccc12)C(=O)N[C@H](CC(C)C)C(=O)N[C@@H](Cc1c[nH]c2ccccc12)C(=O)N[C@H](CC(C)C)C(=O)N[C@@H](Cc1c[nH]c2ccccc12)C(=O)NCCO)[C@H](C)O)C(C)C)C(C)C)C(C)C [compound 10674] (For-VGA[dL]A[dV]V[dV]W[dT]W[dL]W[dL]W-NHCH2CH2OH)	+
CNC(=O)C[C@@H](NC(=O)[C@@H](NC(=O)[C@@H](CC(C)C)NC(=O)[C@H](C)NC(=O)[C@@H](CC(C)C)NC(=O)[C@H](C)NC(=O)CNC(=O)[C@@H](NC=O)C(C)C)C(C)C)C(=O)N[C@@H](Cc1c[nH]c2ccccc12)C(=O)N[C@@H](C(=O)N[C@@H](Cc1c[nH]c2ccccc12)C(=O)N[C@@H](C(=O)N[C@@H](Cc1c[nH]c2ccccc12)C(=O)N[C@H](CC(C)C)C(=O)N[C@@H](Cc1c[nH]c2ccccc12)C(=O)NCCO)C(C)C)C(C)C [compound 2951] (For-VGA[dL]A[dL]V[dD](NHMe)W[dV]W[dV]W[dL]W-NHCH2CH2OH)	-

* * *

ASSAY_CONDITIONS: cell viability/%
Where a SMILES comes first, the peptide text is derived from it. [ ]: non-standard residue; d: D form. The star is where a group is joined. NHCH2CH2OH = OCCN*; For = O=C*
# viability per entry
Answer format: numeric, % implied, no suffix.

CC(C)C[C@@H](NC(=O)[C@H](C)NC(=O)CNC(=O)[C@@H](NC=O)C(C)C)C(=O)N[C@@H](C)C(=O)N[C@H](CC(C)C)C(=O)N[C@H](C(=O)N[C@@H](C(=O)N[C@@H](Cc1c[nH]c2ccccc12)C(=O)N[C@@H](C(=O)N[C@@H](Cc1c[nH]c2ccccc12)C(=O)N[C@@H](C(=O)N[C@@H](Cc1c[nH]c2ccccc12)C(=O)N[C@@H](C(=O)N[C@@H](Cc1c[nH]c2ccccc12)C(=O)NCCO)[C@H](C)O)C(C)C)C(C)C)C(C)C)C(C)C [compound 2793] (For-VGA[dL]A[dL]V[dV]W[dV]W[dV]W[dT]W-NHCH2CH2OH)	84.6

Then this compound:
Prompt: Fill blank: measured viability of the compound CNC(=O)C[C@@H](NC(=O)[C@@H](NC(=O)[C@@H](CC(C)C)NC(=O)[C@H](C)NC(=O)[C@@H](CC(C)C)NC(=O)[C@H](C)NC(=O)CNC(=O)[C@@H](NC=O)C(C)C)C(C)C)C(=O)N[C@@H](Cc1c[nH]c2ccccc12)C(=O)N[C@@H](C(=O)N[C@@H](Cc1c[nH]c2ccccc12)C(=O)N[C@@H](C(=O)N[C@@H](Cc1c[nH]c2ccccc12)C(=O)N[C@@H](C(=O)N[C@@H](Cc1c[nH]c2ccccc12)C(=O)NCCO)C(C)C)C(C)C)C(C)C [compound 3931] (For-VGA[dL]A[dL]V[dD](NHMe)W[dV]W[dV]W[dV]W-NHCH2CH2OH) is ____.
Response: 100

* * *

Tested on: Streptococcus pyogenes SSI-9
EXPERIMENT_SUMMARY: Antibacterial activity assay of bead-derived peptides (three concentrations)
Type: cell-based
Design: key: +++: inhibition by the 640-fold diluted peptide solution; ++: inhibition by the 160-fold diluted solution; +: inhibition by the 40-fold diluted solution; -: no inhibition
ASSAY_CONDITIONS: S. pyogenes, bead-derived peptide solution, three concentrations
Where a SMILES comes first, the peptide text is derived from it. [ ]: non-standard residue; d: D form. The star is where a group is joined. NHCH2CH2OH = OCCN*; For = O=C*
EXPERIMENTAL_ENDPOINT: antibacterial activity

CC(C)C[C@@H](NC(=O)[C@H](C)NC(=O)CNC(=O)[C@@H](NC=O)C(C)C)C(=O)N[C@@H](C)C(=O)N[C@@H](C(=O)N[C@H](C(=O)N[C@@H](C(=O)N[C@@H](Cc1c[nH]c2ccccc12)C(=O)N[C@@H](C(=O)N[C@@H](Cc1c[nH]c2ccccc12)C(=O)N[C@H](CC(C)C)C(=O)N[C@@H](Cc1c[nH]c2ccccc12)C(=O)N[C@@H](C(=O)N[C@@H](Cc1c[nH]c2ccccc12)C(=O)NCCO)C(C)C)C(C)C)C(C)C)C(C)C)C(C)C [compound 6861] (For-VGA[dL]A[dV]V[dV]W[dV]W[dL]W[dV]W-NHCH2CH2OH)	+
CNC(=O)C[C@@H](NC(=O)[C@@H](NC(=O)[C@@H](CC(C)C)NC(=O)[C@H](C)NC(=O)[C@H](NC(=O)[C@H](C)NC(=O)CNC(=O)[C@@H](NC=O)C(C)C)C(C)C)C(C)C)C(=O)N[C@@H](Cc1c[nH]c2ccccc12)C(=O)N[C@@H](C(=O)N[C@@H](Cc1c[nH]c2ccccc12)C(=O)N[C@@H](C(=O)N[C@@H](Cc1c[nH]c2ccccc12)C(=O)N[C@@H](C(=O)N[C@@H](Cc1c[nH]c2ccccc12)C(=O)NCCO)C(C)C)C(C)C)C(C)C [compound 8662] (For-VGA[dV]A[dL]V[dD](NHMe)W[dV]W[dV]W[dV]W-NHCH2CH2OH)	-

* * *

Tested on: P388 mouse leukemia cells
ASSAY_CONDITIONS: 92 h
Where a SMILES comes first, the peptide text is derived from it. [ ]: non-standard residue; d: D form. The star is where a group is joined. NHCH2CH2OH = OCCN*; For = O=C*
EXPERIMENTAL_ENDPOINT: cell viability/% (%)
Answer format: numeric, % implied, no suffix.

CNC(=O)C[C@@H](NC(=O)[C@H](Cc1c[nH]c2ccccc12)NC(=O)[C@@H](CC(C)C)NC(=O)[C@H](Cc1c[nH]c2ccccc12)NC(=O)[C@H](NC(=O)[C@H](Cc1c[nH]c2ccccc12)NC(=O)[C@H](NC(=O)[C@@H](NC(=O)[C@@H](CC(C)C)NC(=O)[C@H](C)NC(=O)[C@H](NC(=O)[C@H](C)NC(=O)CNC(=O)[C@@H](NC=O)C(C)C)C(C)C)C(C)C)C(C)C)C(C)C)C(=O)N[C@@H](Cc1c[nH]c2ccccc12)C(=O)NCCO [compound 13317] (For-VGA[dV]A[dL]V[dV]W[dV]W[dL]W[dD](NHMe)W-NHCH2CH2OH)	100.0

Prompt: Fill blank: measured cell viability/% of the compound CC(C)C[C@@H](NC(=O)[C@H](C)NC(=O)CNC(=O)[C@@H](NC=O)C(C)C)C(=O)N[C@@H](C)C(=O)N[C@@H](C(=O)N[C@H](C(=O)N[C@@H](C(=O)N[C@@H](Cc1c[nH]c2ccccc12)C(=O)N[C@@H](C(=O)N[C@@H](Cc1c[nH]c2ccccc12)C(=O)N[C@H](CC(C)C)C(=O)N[C@@H](Cc1c[nH]c2ccccc12)C(=O)N[C@@H](C(=O)N[C@@H](Cc1c[nH]c2ccccc12)C(=O)NCCO)C(C)C)C(C)C)C(C)C)C(C)C)C(C)C [compound 6861] (For-VGA[dL]A[dV]V[dV]W[dV]W[dL]W[dV]W-NHCH2CH2OH) is ____.
Response: 100.0

Prompt: Fill blank: measured cell viability/% of the compound CC(C)C[C@@H](NC(=O)[C@H](C)NC(=O)CNC(=O)[C@@H](NC=O)C(C)C)C(=O)N[C@@H](C)C(=O)N[C@@H](C(=O)N[C@H](C(=O)N[C@@H](C(=O)N[C@@H](Cc1c[nH]c2ccccc12)C(=O)N[C@@H](C(=O)N[C@@H](Cc1c[nH]c2ccccc12)C(=O)N[C@H](CC(C)C)C(=O)N[C@@H](Cc1c[nH]c2ccccc12)C(=O)N[C@@H](C(=O)N[C@@H](Cc1c[nH]c2ccccc12)C(=O)NCCO)C(C)C)C(C)C)C(C)C)C(C)C)C(C)C [compound 1289] (For-VGA[dL]A[dV]V[dV]W[dV]W[dL]W[dV]W-NHCH2CH2OH) is ____.
Response: 95.6

Prompt: Fill blank: measured cell viability/% of the compound CC(C)C[C@@H](NC(=O)[C@H](C)NC(=O)CNC(=O)[C@@H](NC=O)C(C)C)C(=O)N[C@@H](C)C(=O)N[C@H](CC(C)C)C(=O)N[C@H](C(=O)N[C@H](CC(C)C)C(=O)N[C@@H](Cc1c[nH]c2ccccc12)C(=O)N[C@@H](C(=O)N[C@@H](Cc1c[nH]c2ccccc12)C(=O)N[C@H](CC(C)C)C(=O)N[C@@H](Cc1c[nH]c2ccccc12)C(=O)N[C@H](CC(C)C)C(=O)N[C@@H](Cc1c[nH]c2ccccc12)C(=O)NCCO)[C@H](C)O)C(C)C [compound 11408] (For-VGA[dL]A[dL]V[dL]W[dT]W[dL]W[dL]W-NHCH2CH2OH) is ____.
Response: 57.5
